- System: Mus musculus
- Assay Comment: Effective dose of the intraperitoneally administered compound causing loss of traction reflex, was tested in N-methyl-D-aspartic acid convulsions model
- Assay type: functional
- Setup Conditions: ip
Checkbox rule: ED50 lower than 6 mg/kg = Condition met; ED50 not lower than 6 mg/kg = Condition not met.

A selection of reference data follows.
INSERT INTO results (molecule, class_assignment) VALUES
  ('O=C(O)[C@H]1C[C@H](C/C=C/P(=O)(O)O)CCN1', 'Condition not met'),
  ('N[C@H](CCCCCP(=O)(O)O)C(=O)O', 'Condition not met'),
  ('CC([C@H]1CCN[C@@H](C(=O)O)C1)P(=O)(O)O (stereo partly drawn)', 'Condition not met'),
  ('O=C(O)[C@H]1C[C@@H](C/C=C/P(=O)(O)O)CCN1', 'Condition not met');

Could you please tell me whether ED50 recorded for O=C(O)[C@H]1C[C@@H](CCCP(=O)(O)O)CCN1 is less than 6 mg/kg?
Condition met

Could you please tell me whether ED50 recorded for C[C@H]1[C@@H](CP(=O)(O)O)CCN[C@H]1C(=O)O is less than 6 mg/kg?
Condition not met

Could you please tell me whether ED50 recorded for N[C@@H](CCCP(=O)(O)O)C(=O)O is less than 6 mg/kg?
Condition not met

Could you please tell me whether ED50 recorded for O=C(O)[C@@H]1C[C@H](CP(=O)(O)O)CCN1 is less than 6 mg/kg?
Condition met

Could you please tell me whether ED50 recorded for O=C(O)[C@H]1C[C@@H](/C=C/CP(=O)(O)O)CCN1 is less than 6 mg/kg?
Condition met

Could you please tell me whether ED50 recorded for O=C(O)[C@H]1C[C@H](/C=C/CP(=O)(O)O)CCN1 is less than 6 mg/kg?
Condition not met

Could you please tell me whether ED50 recorded for C[C@H]1CN[C@@H](C(=O)O)C[C@H]1CP(=O)(O)O is less than 6 mg/kg?
Condition not met

Could you please tell me whether ED50 recorded for C[C@@H]1C[C@H](CP(=O)(O)O)C[C@H](C(=O)O)N1 is less than 6 mg/kg?
Condition not met

----------
- Experimental Target: Glutamate NMDA receptor
- Assay Comment: Inhibition of [3H]-CGS- 19755 binding to N-methyl-D-aspartate glutamate receptor in rat crude synaptic membranes
- Format: cell membranes, Membrane
For each of the compounds below, state its pIC50.
Answers are plain numbers, as −log10 of the molar value.

Solved entries (count: 5):
INSERT INTO results (compound, experimental_target, value_observed) VALUES
  ('O=C(O)[C@H]1C[C@H](/C=C/CP(=O)(O)O)CCN1', 'Glutamate NMDA receptor', 7.41),
  ('C[C@H]1CN[C@@H](C(=O)O)C[C@H]1CP(=O)(O)O', 'Glutamate NMDA receptor', 7.11),
  ('C[C@@H]1C[C@H](CP(=O)(O)O)C[C@H](C(=O)O)N1', 'Glutamate NMDA receptor', 5.80),
  ('CC(C)([C@H]1CCN[C@@H](C(=O)O)C1)P(=O)(O)O', 'Glutamate NMDA receptor', 5.89),
  ('O=C(O)[C@H]1C[C@H](CP(=O)(O)O)CCN1', 'Glutamate NMDA receptor', 6.34);

For every item below, please supply its pIC50.
1. CC([C@H]1CCN[C@@H](C(=O)O)C1)P(=O)(O)O (some centres not stated)
2. O=C(O)[C@H]1C[C@H](CCCP(=O)(O)O)CCN1

6.10
6.98

----------
- Experimental Target: Glutamate NMDA receptor
- Assay Comment: Inhibition of [3H]-CGS- 19755 binding to N-methyl-D-aspartic acid receptors in rat crude synaptic membranes
- Type: cell membranes, Membrane
Readout Label: log10(IC50) (log10 of the value in nM)
Log scale reminder: IC50 in nM, then log10 taken.

Solved entries (count: 4):
INSERT INTO results (compound, readout_label, value_observed) VALUES
  ('N[C@H](CCCCCP(=O)(O)O)C(=O)O', 'log10(IC50)', 2.96),
  ('O=C(O)[C@@H]1C[C@H](CP(=O)(O)O)CCN1 [SELFOTEL]', 'log10(IC50)', 1.51),
  ('O=C(O)[C@H]1C[C@@H](CCCP(=O)(O)O)CCN1', 'log10(IC50)', 1.99),
  ('N[C@@H](CCCP(=O)(O)O)C(=O)O', 'log10(IC50)', 2.54);

Now examine the next entry.
// lookup log10(IC50) for O=C(O)C1CN(CCCP(=O)(O)O)CCN1 (stereo not given)
2.34

----------
For each of the compounds below, state its log10 ED50.
- Test system: Mus musculus
- Assay Comment: Effective dose of the intraperitoneally administered compound protecting mice against tonic seizures, was tested in N-methyl-D-aspartic acid convulsions model
- Assay type: functional
- Setup Conditions: ip
Log scale reminder: ED50 in mg/kg, then log10 taken.

INSERT INTO measurements (compound, experimental_target, readout_label, value_observed) VALUES
  ('C[C@@H]1C[C@H](CP(=O)(O)O)C[C@H](C(=O)O)N1', 'Mus musculus', 'log10 ED50', 1.53),
  ('C[C@H]1CN[C@@H](C(=O)O)C[C@H]1CP(=O)(O)O', 'Mus musculus', 'log10 ED50', 0.85),
  ('O=C(O)[C@H]1C[C@@H](CCCP(=O)(O)O)CCN1', 'Mus musculus', 'log10 ED50', 0.30),
  ('N[C@H](CCCCCP(=O)(O)O)C(=O)O', 'Mus musculus', 'log10 ED50', 1.53),
  ('O=C(O)[C@H]1C[C@H](/C=C/CP(=O)(O)O)CCN1', 'Mus musculus', 'log10 ED50', 0.92);

For every item below, please supply its log10 ED50.
1. O=C(O)[C@H]1C[C@H](C/C=C/P(=O)(O)O)CCN1
2. O=C(O)[C@H]1C[C@@H](C/C=C/P(=O)(O)O)CCN1
3. O=C(O)C1CN(CCCP(=O)(O)O)CCN1 (stereo not drawn)
4. C[C@H]1[C@@H](CP(=O)(O)O)CCN[C@H]1C(=O)O
5. CC([C@H]1CCN[C@@H](C(=O)O)C1)P(=O)(O)O (stereo partly drawn)
6. O=C(O)[C@@H]1C[C@H](CP(=O)(O)O)CCN1

1.00
0.40
0.28
1.41
1.32
0.32

// lookup log10 ED50 for O=C(O)[C@H]1C[C@@H](/C=C/CP(=O)(O)O)CCN1
0.08

----------
- Experimental Target: Glutamate NMDA receptor
- Assay Comment: Inhibition of [3H]-CGS- 19755 binding to N-methyl-D-aspartate glutamate receptor in rat crude synaptic membranes
- Assay type: cell membranes, Membrane
Readout Label: pIC50
Numbers only, as −log10 of the molar value.

For every item below, please supply its pIC50.
1. C[C@H]1[C@@H](CP(=O)(O)O)CCN[C@H]1C(=O)O
2. CN1CC[C@H](CP(=O)(O)O)C[C@@H]1C(=O)O
3. O=C(O)[C@H]1C[C@@H](/C=C/CP(=O)(O)O)CCN1
4. O=C(O)[C@H]1C[C@@H](C/C=C/P(=O)(O)O)CCN1
5. O=C(O)[C@H]1C[C@H](C/C=C/P(=O)(O)O)CCN1

1: 5.89; 2: 4.55; 3: 7.85; 4: 7.14; 5: 7.10
